Quick reference for viability, T/C among some molecules
Tested on: 556581-035-R-J1-PDC complex spheroid growth
Assay: Anticancer human tumor 556581-035-R-J1-PDC patient-derived ovarian carcinoma cell line growth inhibition [AhR]
Conditions: second compound 10 µM; first compound 3 µM; stronger effect = lower value
Give just the numeric value; % need not be written.

>>> value("O=C(C=Cn1cnc(-c2cc(C(F)(F)F)cc(C(F)(F)F)c2)n1)NNc1cnccn1 + CC(CO)NC(=O)c1cc(-c2ccc(Cl)cc2)nn(-c2cnn(C)c2)c1=O")
72.7
>>> value("CCN(c1cc(-c2ccc(CN3CCOCC3)cc2)cc(C(=O)NCc2c(C)cc(C)[nH]c2=O)c1C)C1CCOCC1 + Cc1cncc(-c2nc(NCCc3c[nH]c4ccccc34)c3ncn(C(C)C)c3n2)c1")
44.3
>>> value("O=C(C=Cn1cnc(-c2cc(C(F)(F)F)cc(C(F)(F)F)c2)n1)NNc1cnccn1 + Cc1cncc(-c2nc(NCCc3c[nH]c4ccccc34)c3ncn(C(C)C)c3n2)c1")
68.9
>>> value("CCN(c1cc(-c2ccc(CN3CCOCC3)cc2)cc(C(=O)NCc2c(C)cc(C)[nH]c2=O)c1C)C1CCOCC1 + Cc1ccccc1N=Nc1ccc(NC(=O)c2ccnn2C)c(C)c1")
73.4
>>> value("O=C(C=Cn1cnc(-c2cc(C(F)(F)F)cc(C(F)(F)F)c2)n1)NNc1cnccn1 + Cc1ccccc1N=Nc1ccc(NC(=O)c2ccnn2C)c(C)c1")
56.9

Now for the molecule whose viability, T/C we want.
Exercise: Look at this molecule and give its reported viability, T/C. CCN(c1cc(-c2ccc(CN3CCOCC3)cc2)cc(C(=O)NCc2c(C)cc(C)[nH]c2=O)c1C)C1CCOCC1 + CC(CO)NC(=O)c1cc(-c2ccc(Cl)cc2)nn(-c2cnn(C)c2)c1=O
Solution: 94.8

====

Test system: 556581-035-R-J1-PDC complex spheroid growth
Assay: Anticancer human tumor 556581-035-R-J1-PDC cell line growth inhibition [AhR]; active means viability on the fitted dose curve at most 10% of control; inactive means the rest;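 further: compound exposure lasted 7 days; 100% = DMSO vehicle control growth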
Conditions: second compound 3.16 µM; first compound 0.0949 µM
Answer with one of the outcomes given here: active, inactive

>>> class_assignment("O=C(C=Cn1cnc(-c2cc(C(F)(F)F)cc(C(F)(F)F)c2)n1)NNc1cnccn1 + CC(CO)NC(=O)c1cc(-c2ccc(Cl)cc2)nn(-c2cnn(C)c2)c1=O")
"inactive"
>>> class_assignment("O=C(C=Cn1cnc(-c2cc(C(F)(F)F)cc(C(F)(F)F)c2)n1)NNc1cnccn1 + Cc1cncc(-c2nc(NCCc3c[nH]c4ccccc34)c3ncn(C(C)C)c3n2)c1")
"inactive"
>>> class_assignment("CCc1c2c(nc3ccc(O)cc13)-c1cc3c(c(=O)n1C2)COC(=O)[C@]3(O)CC + Cc1ccccc1N=Nc1ccc(NC(=O)c2ccnn2C)c(C)c1")
"inactive"
>>> class_assignment("CCN(c1cc(-c2ccc(CN3CCOCC3)cc2)cc(C(=O)NCc2c(C)cc(C)[nH]c2=O)c1C)C1CCOCC1 + Cc1cncc(-c2nc(NCCc3c[nH]c4ccccc34)c3ncn(C(C)C)c3n2)c1")
"inactive"
>>> class_assignment("CCN(c1cc(-c2ccc(CN3CCOCC3)cc2)cc(C(=O)NCc2c(C)cc(C)[nH]c2=O)c1C)C1CCOCC1 + Cc1ccccc1N=Nc1ccc(NC(=O)c2ccnn2C)c(C)c1")
"inactive"

API: the following record is the query input.
Exercise: Which result was noted for this compound in the test: CC(C)CC(NC(=O)C(Cc1ccccc1)NC(=O)c1cnccn1)B(O)O (stereo unspecified) + CC(CO)NC(=O)c1cc(-c2ccc(Cl)cc2)nn(-c2cnn(C)c2)c1=O
Solution: active

====

Tested on: 556581-035-R-J1-PDC complex spheroid growth
Assay: Anticancer human tumor 556581-035-R-J1-PDC cell line growth inhibition [AhR];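 further: compound exposure lasted 7 days; 100% = DMSO vehicle control growth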
Conditions: second compound 0.1 µM; first compound 0.1 µM; stronger effect = lower value
Endpoint Label: viability, T/C

>>> value("CC1COCCN1c1cc(C2(S(C)(=N)=O)CC2)nc(-c2ccnc3[nH]ccc23)n1 (stereo unspecified) + CC(CO)NC(=O)c1cc(-c2ccc(Cl)cc2)nn(-c2cnn(C)c2)c1=O")
"113%"
>>> value("O=C(c1cc(Cc2n[nH]c(=O)c3ccccc23)ccc1F)N1CCN(C(=O)C2CC2)CC1 + Cc1ccccc1N=Nc1ccc(NC(=O)c2ccnn2C)c(C)c1")
"92.5%"
>>> value("Nc1ncn(C2CC(O)C(CO)O2)c(=O)n1 (stereo unspecified) + Cc1cncc(-c2nc(NCCc3c[nH]c4ccccc34)c3ncn(C(C)C)c3n2)c1")
"89%"
>>> value("CC1COCCN1c1cc(C2(S(C)(=N)=O)CC2)nc(-c2ccnc3[nH]ccc23)n1 (stereo unspecified) + Cc1cncc(-c2nc(NCCc3c[nH]c4ccccc34)c3ncn(C(C)C)c3n2)c1")
"104%"
>>> value("COc1cc(Nc2ncc3c(n2)-c2ccc(Cl)cc2C(c2c(F)cccc2OC)=NC3)ccc1C(=O)O + Cc1ccccc1N=Nc1ccc(NC(=O)c2ccnn2C)c(C)c1")
"72.4%"

Now, please, on to the next compound.
Exercise: Dear colleague, I am looking for the recorded viability, T/C of the following compound: O=C(C=Cc1cccc(S(=O)(=O)Nc2ccccc2)c1)NO + CC(CO)NC(=O)c1cc(-c2ccc(Cl)cc2)nn(-c2cnn(C)c2)c1=O
Solution: 88.9%

====

Quick reference for viability, T/C among some molecules
Test system: 556581-035-R-J1-PDC complex spheroid growth
Assay: Anticancer human tumor 556581-035-R-J1-PDC cell line growth inhibition [AhR];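 further: compound exposure lasted 7 days; 100% = DMSO vehicle control growth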
Details: second compound 10 µM; first compound 3.16 µM; stronger effect = lower value
Reply with just the number (in %).

# annotated cases, reported viability, T/C shown
>>> value("COc1cc(Nc2ncc3c(n2)-c2ccc(Cl)cc2C(c2c(F)cccc2OC)=NC3)ccc1C(=O)O + Cc1ccccc1N=Nc1ccc(NC(=O)c2ccnn2C)c(C)c1")
57.6
>>> value("CC1COCCN1c1cc(C2(S(C)(=N)=O)CC2)nc(-c2ccnc3[nH]ccc23)n1 (stereo not drawn) + Cc1ccccc1N=Nc1ccc(NC(=O)c2ccnn2C)c(C)c1")
74.5

// switching to the query molecule
Exercise: For CC1(C)CCC(CN2CCN(c3ccc(C(=O)NS(=O)(=O)c4ccc(NCC5CCOCC5)c([N+](=O)[O-])c4)c(Oc4cnc5[nH]ccc5c4)c3)CC2)=C(c2ccc(Cl)cc2)C1 + CC(CO)NC(=O)c1cc(-c2ccc(Cl)cc2)nn(-c2cnn(C)c2)c1=O , what is its reported viability, T/C?
Solution: 99

====

Test system: 556581-035-R-J1-PDC complex spheroid growth
Experiment: Anticancer human tumor 556581-035-R-J1-PDC cell line growth inhibition [AhR];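 further: compound exposure lasted 7 days; 100% = DMSO vehicle control growth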
Settings: second compound 10 µM; first compound 0.949 µM; stronger effect = lower value
Hi! Could you tag entries with viability, T/C below 70% as Fulfilled, and those at or above as Not fulfilled? Much appreciated.

>>> class_assignment("CCN(c1cc(-c2ccc(CN3CCOCC3)cc2)cc(C(=O)NCc2c(C)cc(C)[nH]c2=O)c1C)C1CCOCC1 + CC(CO)NC(=O)c1cc(-c2ccc(Cl)cc2)nn(-c2cnn(C)c2)c1=O")
"Not fulfilled"
>>> class_assignment("CCN(c1cc(-c2ccc(CN3CCOCC3)cc2)cc(C(=O)NCc2c(C)cc(C)[nH]c2=O)c1C)C1CCOCC1 + Cc1cncc(-c2nc(NCCc3c[nH]c4ccccc34)c3ncn(C(C)C)c3n2)c1")
"Fulfilled"
>>> class_assignment("O=C(C=Cn1cnc(-c2cc(C(F)(F)F)cc(C(F)(F)F)c2)n1)NNc1cnccn1 + Cc1cncc(-c2nc(NCCc3c[nH]c4ccccc34)c3ncn(C(C)C)c3n2)c1")
"Fulfilled"
>>> class_assignment("CCN(c1cc(-c2ccc(CN3CCOCC3)cc2)cc(C(=O)NCc2c(C)cc(C)[nH]c2=O)c1C)C1CCOCC1 + Cc1ccccc1N=Nc1ccc(NC(=O)c2ccnn2C)c(C)c1")
"Not fulfilled"

In the following, a different compound is considered.
Exercise: Is it true that viability, T/C reported for O=C(C=Cn1cnc(-c2cc(C(F)(F)F)cc(C(F)(F)F)c2)n1)NNc1cnccn1 + CC(CO)NC(=O)c1cc(-c2ccc(Cl)cc2)nn(-c2cnn(C)c2)c1=O is less than 70%?
Solution: Not fulfilled

====

Test system: 556581-035-R-J1-PDC complex spheroid growth
Test: Anticancer human tumor 556581-035-R-J1-PDC cell line growth inhibition [AhR];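 further: compound exposure lasted 7 days; 100% = DMSO vehicle control growth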
Details: second compound 0.1 µM; first compound 0.1 µM; stronger effect = lower value
The entries below come with measured viability, T/C values attached.
Express the result in % but write the number alone.

Exercise: What does the data say about its viability, T/C? Entry: Cn1ncnc1C1c2n[nH]c(=O)c3cc(F)cc(c23)NC1c1ccc(F)cc1 (stereo unspecified) + Cc1cncc(-c2nc(NCCc3c[nH]c4ccccc34)c3ncn(C(C)C)c3n2)c1
Solution: 90.3

Exercise: Which value of viability, T/C has been reported for NS(=O)(=O)OCC1CC(n2ccc3c(NC4CCc5ccccc54)ncnc32)CC1O (stereo unspecified) + Cc1ccccc1N=Nc1ccc(NC(=O)c2ccnn2C)c(C)c1 in the records?
Solution: 103

Exercise: Can you share its viability, T/C? I mean this compound: CC1(C)CCC(CN2CCN(c3ccc(C(=O)NS(=O)(=O)c4ccc(NCC5CCOCC5)c([N+](=O)[O-])c4)c(Oc4cnc5[nH]ccc5c4)c3)CC2)=C(c2ccc(Cl)cc2)C1 + Cc1cncc(-c2nc(NCCc3c[nH]c4ccccc34)c3ncn(C(C)C)c3n2)c1
Solution: 98.6

Exercise: viability, T/C for CC(C)c1c(-c2ccccc2)nc2c(C#N)c[nH]n2c1=O + CC(CO)NC(=O)c1cc(-c2ccc(Cl)cc2)nn(-c2cnn(C)c2)c1=O ?
Solution: 97.8
